Values were extracted from the RNAGym collection of RNA variant scans (doi:10.7554/elife.80360).

B1: CPEB3 Ribozyme (parent)
chain: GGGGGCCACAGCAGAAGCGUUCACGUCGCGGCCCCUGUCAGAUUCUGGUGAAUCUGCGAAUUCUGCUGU

Variants of: B1
method: self-cleavage, relative activity (ratio to wild type); higher = more cleavage; co-transcriptional
So basically every entry gets a class from its self-cleavage, ranges being bucket A = under 0.4, bucket B = from 0.4 up to 0.8, bucket C = 0.8 and over

- GGGGGCCACAGCUGAAGCGUUCACGUCGCGGCCCCUGUCAGAUUCUGGUGAAUCGGCGAAUUCUGCUGU [A13U U55G]: bucket A
- GGGGGCCACAGCAGAAGCGUUCACGUCGCGGACCCUGUCAGAUUCUGGUGAAUCUGCGAAUUCUGCUGC [C32A U69C]: bucket C
- GGGGGCCACAGCAGAAGCGUUCACGUCGCGGCUCCGGUCAGAUUCUGGUGAAUCUGCGAAUUCUGCUGU [C33U U36G]: bucket A
- GGGGGCCACAGCAGAAGCGUUCACGUCGCAGCCCCUGUCUGAUUCUGGUGAAUCUGCGAAUUCUGCUGU [G30A A40U]: bucket B
- GGGGGCCACAGCAGAAGCGUUCACGUCGCGUCCCCUGUCAGAUUCCGGUGAAUCUGCGAAUUCUGCUGU [G31U U46C]: bucket B
- GGGGGCCACAGCAGAAGCGUUCACGUCGCGGCGCCUGUCAGAUUCUGGUGAAUCUGCGAAUGCUGCUGU [C33G U62G]: bucket A
- GGGGGGCACAGCAGAAGCGUUCACGUCGCGGCCCCUGUCAGAUUCUGGGGAAUCUGCGAAUUCUGCUGU [C6G U49G]: bucket A
- GGGGGCCACAGCAGAAGCGUUCACGUCGCGGCCCCUGUCAGCUUCUGGUGAAUCUGCGAAUUCUGCUAU [A42C G68A]: bucket C
- GGGGGCCACAGCAGAAGCGUUCACGUCGCGGCCCCUGUCAGAUUCUCAUGAAUCUGCGAAUUCUGCUGU [G47C G48A]: bucket C
- GCGGGCCACAGCAGAAGCGUUCACGUCGCGGCGCCUGUCAGAUUCUGGUGAAUCUGCGAAUUCUGCUGU [G2C C33G]: bucket A
- GGGGGCCACAGCAGAAGCGUUCACGUCGCGGCCCCUGUCAGAGUCUGGGGAAUCUGCGAAUUCUGCUGU [U43G U49G]: bucket C
- GGGGGCCACAGCAGAAGCGUUCACGUCGCGGCCCCUGUCAGAUUCUGGUAACUCUGCGAAUUCUGCUGU [G50A A52C]: bucket C
- GGGGGCCACAGCAGAAGCGUUCACGUCGCGGCACCUGUCAGAUUCUGGUGAAUCAGCGAAUUCUGCUGU [C33A U55A]: bucket B
- GGGGGCCACAGCACAAGCGUUCACGUCGCGGCCCCUUUCAGAUUCUGGUGAAUCUGCGAAUUCUGCUGU [G14C G37U]: bucket A
- GGGGGCCACAGGAGAAGCGUUCACGUCGCGGCCCCUGUCAGAUUCUGGUGAAUCCGCGAAUUCUGCUGU [C12G U55C]: bucket B
- GGGGGCCACAGCAGAAGCGUUCACGUCGCGGCCCCGGUAAGAUUCUGGUGAAUCUGCGAAUUCUGCUGU [U36G C39A]: bucket A
- GGGGGCCCCAGCAGAAGCGUUCACGUCGCGGCCCCUGUCAGAUUCUGGUGUAUCUGCGAAUUCUGCUGU [A8C A51U]: bucket C
- GGGGGCCACAGCAGAAGCGUUGACGUCGCGGCCCCUGUCAGAUUCUGGUGAAGCUGCGAAUUCUGCUGU [C22G U53G]: bucket A
- GGGGACCACAGCAGAAGCGUUCACGUCGCGGCCCCUGUCAGAUUCUGAUGAAUCUGCGAAUUCUGCUGU [G5A G48A]: bucket C
- GGGGGCCACAGCAGAAGCGUUCACGUCGCGGCACCUGUCAGAUUCUGGUGAACCUGCGAAUUCUGCUGU [C33A U53C]: bucket B
